Values from patent US12612424B2

- SUBJECT_OF_TEST: JAK3 (Homo sapiens, UniProt P52333)
- Construct: purchased Thermo fisher PV3855
- Sequence (P52333 781-1124 limits assumed): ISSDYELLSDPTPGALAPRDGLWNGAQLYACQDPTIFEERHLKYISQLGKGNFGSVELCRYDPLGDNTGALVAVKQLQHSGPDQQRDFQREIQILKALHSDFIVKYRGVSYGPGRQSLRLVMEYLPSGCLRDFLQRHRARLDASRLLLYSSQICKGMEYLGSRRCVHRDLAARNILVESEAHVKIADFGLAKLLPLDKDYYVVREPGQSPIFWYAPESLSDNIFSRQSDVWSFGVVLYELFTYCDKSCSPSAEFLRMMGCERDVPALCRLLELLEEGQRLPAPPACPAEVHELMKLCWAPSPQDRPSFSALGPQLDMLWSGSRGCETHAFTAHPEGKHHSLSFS
- RUN_DESCRIPTION: JAK3 biochemical assay (ADP-GLO Kinase Assay)
- ASSAY_CONTEXT: ratio of JAK3 IC50 to HPK1 IC50; first testing facility
READOUT_NAME: JAKs/HPK1 IC50 Ratio, B*

MOLECULE	JAKs/HPK1 IC50 Ratio, B*
COc1cc2c(cc1Nc1ncc(Cl)c(N3CC(C)(CC(=O)O)c4ccccc43)n1)CN(C)CC2 (single isomer, unassigned) [Example 147]	132

P: COc1cc2c(cc1Nc1ncc(Cl)c(-n3cc(CS(C)(=O)=O)c4ccccc43)n1)CN(C)CC2
Q: CN1CCc2cc(Cl)c(Nc3ncc(Cl)c(N4CCc5ccccc54)n3)cc2C1
R: COc1cc2c(cc1Nc1ncc(Cl)c(-n3nc(C(=O)O)c4ccccc43)n1)CN(C)CC2
Query: Ranking field: JAKs/HPK1 IC50 Ratio, B*; order: falling. Provide the labels, sequenced as the question asks.
Result: P, R, Q
(P: 800, R: 293, Q: 174)

1: COc1cc2c(cc1Nc1ncc(Cl)c(N3CC(C)(CC(=O)O)c4cc(F)ccc43)n1)CN(C)CC2 (stereo not shown)
2: COc1cc2c(cc1Nc1ncc(Cl)c(N3CC(C(=O)O)C4(CCOCC4)C3)n1)CN(C)CC2 (stereo not shown)
Query: Between the entries labelled 1 and 2 , which has a larger JAKs/HPK1 IC50 Ratio, B* value on record? // return label of chosen record
Result: 2
